These entries and their values trace back to PubChem BioAssay AID2060613.

test system: 233499-124-R-J3-PDC complex spheroid viability; test: Anticancer human tumor 233499-124-R-J3-PDC patient-derived colon adenocarcinoma cell line growth inhibition [CLK]; conditions: curve of compound
Recorded IC50, one value per entry.

CCCS(=O)(=O)Nc1ccc(F)c(C(=O)c2c[nH]c3ncc(-c4ccc(Cl)cc4)cc23)c1F: > 10 µM
CCN1CCN(Cc2ccc(Nc3ncc(F)c(-c4cc(F)c5nc(C)n(C(C)C)c5c4)n3)nc2)CC1: > 1 µM
C#Cc1c(F)ccc2cc(O)cc(-c3ncc4c(N5CC6CCC(C5)N6)nc(OCC56CCCN5CC(F)C6)nc4c3F)c12 (stereo not drawn): > 10 µM
CC(CO)NC(=O)c1cc(-c2ccc(Cl)cc2)nn(-c2cnn(C)c2)c1=O (stereo not drawn): > 10 µM
O=C(c1cc(Cc2n[nH]c(=O)c3ccccc23)ccc1F)N1CCN(C(=O)C2CC2)CC1: > 10 µM

q: Which IC50 is reported for this molecule? COc1c(OCCCN2CCOCC2)ccc2c3n(c(=NC(=O)c4cnc(N)nc4)nc12)CCN3
a: 0.141 µM

q: Which IC50 is reported for this molecule? Cn1ncnc1[C@H]1c2n[nH]c(=O)c3cc(F)cc(c23)N[C@@H]1c1ccc(F)cc1
a: > 0.1 µM

q: Which IC50 is reported for this molecule? C=CC(=O)N1CCN(c2nc(=O)n(-c3c(C)ccnc3C(C)C)c3nc(-c4c(O)cccc4F)c(F)cc23)C(C)C1 (stereo not drawn)
a: > 10 µM

---

Test system: 233499-124-R-J3-PDC complex spheroid viability
Assay: Anticancer human tumor 233499-124-R-J3-PDC cell line growth inhibition [CLK];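 also: spheroids exposed to the drug combinations for seven days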;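 as to viability, T/C: percent viability relative to DMSO vehicle control wells taken as 100%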
Conditions: second compound 0.316 µM; first compound 0.0949 µM; stronger effect = lower value
From the text: A high-throughput screen of multi-cell type tumor spheroids was designed to identify active combinations of […] and targeted small molecules. Complex spheroids include a stromal component modeled by human endothelial cells (HUVEC) and fibroblasts modeled by human mesenchymal stem cells (MSCs). […] Compounds. […] If the clinical Cmax for an agent had not been determined, the highest concentration tested was 10 microM. […]
Rule: measured viability, T/C below 80% gets true; anything equal to or greater than 80% gets false.

Some entries whose results are on file:
C=CC(=O)Nc1cc(Nc2nccc(-c3cn(C)c4ccccc34)n2)c(OC)cc1N(C)CCN(C)C + CNC(=O)c1ccc(Nc2nc(OC3CCCC3)c3c(-c4ccc5nc(C)oc5c4)c[nH]c3n2)c(OC)c1: true
C=CC(=O)Nc1cc(Nc2nccc(-c3cn(C)c4ccccc34)n2)c(OC)cc1N(C)CCN(C)C + CN1CCN(c2cc(C(=O)Nc3cc4cc(-c5cnn(C)c5)ccc4cn3)ccn2)CC1: false
CC(C)CC(NC(=O)C(Cc1ccccc1)NC(=O)c1cnccn1)B(O)O (stereo unspecified) + CNC(=O)c1ccc(Nc2nc(OC3CCCC3)c3c(-c4ccc5nc(C)oc5c4)c[nH]c3n2)c(OC)c1: true
CC(C)CC(NC(=O)C(Cc1ccccc1)NC(=O)c1cnccn1)B(O)O (stereo unspecified) + CN1CCN(c2cc(C(=O)Nc3cc4cc(-c5cnn(C)c5)ccc4cn3)ccn2)CC1: true

Consider the record given below.
q: Please determine if NC(=O)C(=Cn1cnc(-c2cc(C(F)(F)F)cc(C(F)(F)F)c2)n1)c1cncnc1 + CN1CCN(c2cc(C(=O)Nc3cc4cc(-c5cnn(C)c5)ccc4cn3)ccn2)CC1 is below 80% in terms of viability, T/C.
a: true

---

tested on: 233499-124-R-J3-PDC complex spheroid viability; assay: Anticancer human tumor 233499-124-R-J3-PDC cell line growth inhibition [CLK]; conditions: curve of first compound; second compound 0.1 µM;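 also: spheroids exposed to the drug combinations for seven days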
property: log10(IC50) (log10 of the value in µM)
Note: values are log10 of IC50 expressed in µM.

COC1C=CCC(C)C(C)S(=O)(=O)NC(=O)c2ccc3c(c2)N(CC2CCC21)CC1(CCCc2cc(Cl)ccc21)CO3 (stereo unspecified) + CN1CCN(c2cc(C(=O)Nc3cc4cc(-c5cnn(C)c5)ccc4cn3)ccn2)CC1: 0.56
COc1ccc([C@@H](O)c2cc(-c3ncnc4cc(N5CCOCC5)ccc34)c(F)cc2Cl)nn1 + CN1CCN(c2cc(C(=O)Nc3cc4cc(-c5cnn(C)c5)ccc4cn3)ccn2)CC1: 0.99
COc1c(OCCCN2CCOCC2)ccc2c3n(c(=NC(=O)c4cnc(N)nc4)nc12)CCN3 + CNC(=O)c1ccc(Nc2nc(OC3CCCC3)c3c(-c4ccc5nc(C)oc5c4)c[nH]c3n2)c(OC)c1: -0.95

q: Which log10(IC50) is reported for this molecule? CC(Nc1ccc2c(c1)OCCn1cc(N3C(=O)OCC3C(F)F)nc1-2)C(N)=O (stereo unspecified) + CNC(=O)c1ccc(Nc2nc(OC3CCCC3)c3c(-c4ccc5nc(C)oc5c4)c[nH]c3n2)c(OC)c1
a: 0.59

q: Which log10(IC50) is reported for this molecule? CC1(C)CCC(CN2CCN(c3ccc(C(=O)NS(=O)(=O)c4ccc(NCC5CCOCC5)c([N+](=O)[O-])c4)c(Oc4cnc5[nH]ccc5c4)c3)CC2)=C(c2ccc(Cl)cc2)C1 + CNC(=O)c1ccc(Nc2nc(OC3CCCC3)c3c(-c4ccc5nc(C)oc5c4)c[nH]c3n2)c(OC)c1
a: 0.53

q: Which log10(IC50) is reported for this molecule? CC(C)CC(NC(=O)C(Cc1ccccc1)NC(=O)c1cnccn1)B(O)O (stereo unspecified) + CNC(=O)c1ccc(Nc2nc(OC3CCCC3)c3c(-c4ccc5nc(C)oc5c4)c[nH]c3n2)c(OC)c1
a: -2.33

q: Which log10(IC50) is reported for this molecule? Nc1ccn(C2OC(CO)C(O)C2(F)F)c(=O)n1 (stereo unspecified) + CNC(=O)c1ccc(Nc2nc(OC3CCCC3)c3c(-c4ccc5nc(C)oc5c4)c[nH]c3n2)c(OC)c1
a: -0.90

q: Which log10(IC50) is reported for this molecule? O=c1[nH]cc(F)c(=O)[nH]1 + CN1CCN(c2cc(C(=O)Nc3cc4cc(-c5cnn(C)c5)ccc4cn3)ccn2)CC1
a: -0.02

---

System: 233499-124-R-J3-PDC complex spheroid viability
Test: Anticancer human tumor 233499-124-R-J3-PDC cell line growth inhibition [CLK];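 also: spheroids exposed to the drug combinations for seven days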;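 as to viability, T/C: percent viability relative to DMSO vehicle control wells taken as 100%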
Conditions: second compound 1 µM; first compound 0.01 µM; stronger effect = lower value
Text: A high-throughput screen of multi-cell type tumor spheroids was designed to identify active combinations of […] and targeted small molecules. Complex spheroids include a stromal component modeled by human endothelial cells (HUVEC) and fibroblasts modeled by human mesenchymal stem cells (MSCs). […] Compounds. […] If the clinical Cmax for an agent had not been determined, the highest concentration tested was 10 microM. […]
Recorded viability, T/C, one value per entry.

Cn1ncnc1[C@H]1c2n[nH]c(=O)c3cc(F)cc(c23)N[C@@H]1c1ccc(F)cc1 + CNC(=O)c1ccc(Nc2nc(OC3CCCC3)c3c(-c4ccc5nc(C)oc5c4)c[nH]c3n2)c(OC)c1: 74.1%
CCN1CCN(Cc2ccc(Nc3ncc(F)c(-c4cc(F)c5nc(C)n(C(C)C)c5c4)n3)nc2)CC1 + CN1CCN(c2cc(C(=O)Nc3cc4cc(-c5cnn(C)c5)ccc4cn3)ccn2)CC1: 0.82%

q: Which viability, T/C is reported for this compound? CCc1c2c(nc3ccc(O)cc13)-c1cc3c(c(=O)n1C2)COC(=O)[C@]3(O)CC + CNC(=O)c1ccc(Nc2nc(OC3CCCC3)c3c(-c4ccc5nc(C)oc5c4)c[nH]c3n2)c(OC)c1
a: 49.8%

q: Which viability, T/C is reported for this compound? CCN1CCN(Cc2ccc(Nc3ncc(F)c(-c4cc(F)c5nc(C)n(C(C)C)c5c4)n3)nc2)CC1 + CNC(=O)c1ccc(Nc2nc(OC3CCCC3)c3c(-c4ccc5nc(C)oc5c4)c[nH]c3n2)c(OC)c1
a: 85.9%

q: Which viability, T/C is reported for this compound? CCc1c2c(nc3ccc(O)cc13)-c1cc3c(c(=O)n1C2)COC(=O)[C@]3(O)CC + CN1CCN(c2cc(C(=O)Nc3cc4cc(-c5cnn(C)c5)ccc4cn3)ccn2)CC1
a: 0.5%

q: Which viability, T/C is reported for this compound? Cn1ncnc1[C@H]1c2n[nH]c(=O)c3cc(F)cc(c23)N[C@@H]1c1ccc(F)cc1 + CN1CCN(c2cc(C(=O)Nc3cc4cc(-c5cnn(C)c5)ccc4cn3)ccn2)CC1
a: 1.23%

q: Which viability, T/C is reported for this compound? COc1c(OCCCN2CCOCC2)ccc2c3n(c(=NC(=O)c4cnc(N)nc4)nc12)CCN3 + CNC(=O)c1ccc(Nc2nc(OC3CCCC3)c3c(-c4ccc5nc(C)oc5c4)c[nH]c3n2)c(OC)c1
a: 59.4%

---

test system: 233499-124-R-J3-PDC complex spheroid viability; assay: Anticancer human tumor 233499-124-R-J3-PDC cell line growth inhibition [CLK]; settings: second compound 0.1 µM; first compound 0.1 µM; stronger effect = lower value;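 also: spheroids exposed to the drug combinations for seven days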;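 as to viability, T/C: percent viability relative to DMSO vehicle control wells taken as 100%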
I'd appreciate it if you could label each record using viability, T/C and these ranges: lower level: < 70%; middle level: ≥ 70% and < 90%; upper level: ≥ 90%

Some entries whose results are on file:
C#Cc1c(F)ccc2cc(O)cc(-c3ncc4c(N5CC6CCC(C5)N6)nc(OCC56CCCN5CC(F)C6)nc4c3F)c12 (stereo not given) + CNC(=O)c1ccc(Nc2nc(OC3CCCC3)c3c(-c4ccc5nc(C)oc5c4)c[nH]c3n2)c(OC)c1: lower level
Cn1ncnc1[C@H]1c2n[nH]c(=O)c3cc(F)cc(c23)N[C@@H]1c1ccc(F)cc1 + CN1CCN(c2cc(C(=O)Nc3cc4cc(-c5cnn(C)c5)ccc4cn3)ccn2)CC1: upper level
CCc1c2c(nc3ccc(O)cc13)-c1cc3c(c(=O)n1C2)COC(=O)[C@]3(O)CC + CNC(=O)c1ccc(Nc2nc(OC3CCCC3)c3c(-c4ccc5nc(C)oc5c4)c[nH]c3n2)c(OC)c1: lower level
CC(CO)NC(=O)c1cc(-c2ccc(Cl)cc2)nn(-c2cnn(C)c2)c1=O (stereo not given) + CN1CCN(c2cc(C(=O)Nc3cc4cc(-c5cnn(C)c5)ccc4cn3)ccn2)CC1: upper level

q: Band for the recorded viability, T/C of Cn1ncnc1[C@H]1c2n[nH]c(=O)c3cc(F)cc(c23)N[C@@H]1c1ccc(F)cc1 + CNC(=O)c1ccc(Nc2nc(OC3CCCC3)c3c(-c4ccc5nc(C)oc5c4)c[nH]c3n2)c(OC)c1 ?
a: lower level

q: Band for the recorded viability, T/C of C=CC(=O)N1CCN(c2nc(=O)n(-c3c(C)ccnc3C(C)C)c3nc(-c4c(O)cccc4F)c(F)cc23)C(C)C1 (stereo not given) + CN1CCN(c2cc(C(=O)Nc3cc4cc(-c5cnn(C)c5)ccc4cn3)ccn2)CC1 ?
a: upper level

q: Band for the recorded viability, T/C of O=C(c1cc(Cc2n[nH]c(=O)c3ccccc23)ccc1F)N1CCN(C(=O)C2CC2)CC1 + CNC(=O)c1ccc(Nc2nc(OC3CCCC3)c3c(-c4ccc5nc(C)oc5c4)c[nH]c3n2)c(OC)c1 ?
a: middle level

q: Band for the recorded viability, T/C of Nc1ccccc1NC(=O)c1ccc(CNC(=O)OCc2cccnc2)cc1 + CN1CCN(c2cc(C(=O)Nc3cc4cc(-c5cnn(C)c5)ccc4cn3)ccn2)CC1 ?
a: upper level

q: Band for the recorded viability, T/C of CCCS(=O)(=O)Nc1ccc(F)c(C(=O)c2c[nH]c3ncc(-c4ccc(Cl)cc4)cc23)c1F + CN1CCN(c2cc(C(=O)Nc3cc4cc(-c5cnn(C)c5)ccc4cn3)ccn2)CC1 ?
a: upper level

q: Band for the recorded viability, T/C of COc1c(OCCCN2CCOCC2)ccc2c3n(c(=NC(=O)c4cnc(N)nc4)nc12)CCN3 + CNC(=O)c1ccc(Nc2nc(OC3CCCC3)c3c(-c4ccc5nc(C)oc5c4)c[nH]c3n2)c(OC)c1 ?
a: lower level
